# system name: HLA-B*45:06
# method notes: IEDB peptide-MHC binding, purified MHC/competitive/fluorescence; filed as Kd, often an IC50 or EC50 that approximates it; bounds were set here for any values at or beyond the usual limits of such assays
# assay setup: source organism: Hepacivirus hominis
value type: Kd

Q) Hello, please tell me recorded Kd for this one: LLPRRGPRL
A) ≥ 5 µM

---

# system name: HLA-A*26:01
# method notes: IEDB peptide-MHC binding, purified MHC/direct/fluorescence; filed as Kd, often an IC50 or EC50 that approximates it; bounds were set here for any values at or beyond the usual limits of such assays
# assay setup: source organism: Camelpox virus M-96
For each of the sequences below, state its Kd.
Express your answer in nM, writing the number without its unit.

Q) Hello, please tell me recorded Kd for this one: EIKDRILSY
A) 3

Q) Hello, please tell me recorded Kd for this one: DILASIIDY
A) 361

---

For each of the sequences below, state its Kd.
# system name: HLA-A*03:01
# method notes: IEDB peptide-MHC binding, purified MHC/competitive/radioactivity; filed as Kd, often an IC50 or EC50 that approximates it; bounds were set here for any values at or beyond the usual limits of such assays
# assay setup: source organism: Dengue virus 4 Philippines/H241/1956
Express your answer in nM, writing the number without its unit.

Q) Hello, please tell me recorded Kd for this one: ISYDPKFEK
A) 114

Q) Hello, please tell me recorded Kd for this one: ILKRWGQLK
A) 3.58

Q) Hello, please tell me recorded Kd for this one: RMLNILNGRK
A) 13.8

Q) Hello, please tell me recorded Kd for this one: GISLGLILLK
A) 16.5

---

For each of the sequences below, state its Kd.
# system name: HLA-B*44:03
# method notes: IEDB peptide-MHC binding, purified MHC/competitive/radioactivity; filed as Kd, often an IC50 or EC50 that approximates it; bounds were set here for any values at or beyond the usual limits of such assays
# assay setup: source organism: Mammarenavirus brazilense

Q) Hello, please tell me recorded Kd for this one: AENDIVEAL
A) 0.108 µM

Q) Hello, please tell me recorded Kd for this one: DESGLNISGY
A) 7.83 µM

---

# system name: HLA-B*40:01
# method notes: IEDB peptide-MHC binding, purified MHC/direct/fluorescence; filed as Kd, often an IC50 or EC50 that approximates it; bounds were set here for any values at or beyond the usual limits of such assays
# assay setup: source organism: Influenza A virus (A/Viet Nam/HN/2004(H5N1))
pKd: −log10 of the molar value.
value type: pKd

Q) Hello, please tell me recorded pKd for this one: VSPLAVTWW
A) ≤ 4.70

---

# system name: HLA-A*11:01
# method notes: IEDB peptide-MHC binding, purified MHC/direct/fluorescence; filed as Kd, often an IC50 or EC50 that approximates it; bounds were set here for any values at or beyond the usual limits of such assays
# assay setup: source organism: Yersinia pestis Antiqua
value type: Kd

Q) Hello, please tell me recorded Kd for this one: FQLYSDLAH
A) ≥ 20 µM

---

# system name: HLA-B*83:01
# method notes: IEDB peptide-MHC binding, purified MHC/competitive/fluorescence; filed as Kd, often an IC50 or EC50 that approximates it; bounds were set here for any values at or beyond the usual limits of such assays
# assay setup: source organism: Salmonella enterica subsp. enterica serovar Typhimurium str. LT2
value type: Kd (nM)
Express your answer in nM, writing the number without its unit.

Q) Hello, please tell me recorded Kd for this one: FPASHMATY
A) 220
